Ref: the supplement of paper PMC10567573

Listed here: items and their measured protein stability index.
B1: PLD5 (parent)
chain: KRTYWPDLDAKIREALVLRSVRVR

# Variants of: B1
# Assay text: protein stability index of a GFP-peptide fusion (GPS, HEK-293T) (PSI 1-6); higher = more stable;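 further: lentivirally expressed fusions sorted by FACS into six bins by GFP to DsRed ratio, PSI derived from sequencing read proportions per bin multiplied by bin number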
# Measurement setup: c terminus: a fixed tail appended
Please reply with the number alone, leaving off any unit.

# annotated cases, reported protein stability index shown
- Alteration: "R24P"
  protein stability index: 2.01
- Alteration: "L18R"
  protein stability index: 2.12
- Alteration: "V17H"
  protein stability index: 3.18
- Alteration: "R24L"
  protein stability index: 1.77
- Alteration: "V17N"
  protein stability index: 5.34

protein stability index reading for V17Q : 1.57

The variant listed as A15T shows protein stability index equal to 1.72

V23I has a reported protein stability index of 1.96

Reported protein stability index for R13M was 1.54

Sure, the documented protein stability index for R13V is 2.31

Looking up R24T , I found its protein stability index recorded as 1.52

Looking up A15Q , I found its protein stability index recorded as 2.04

Record L18H , field protein stability index: 2.16

Noted for A10I : its protein stability index reads 2.54
